assay: MTT assay, pre-confluent cell proliferation; format: cell-based, mouse; conditions: mouse, pre-confluent 3T3-L1 preadipocytes; 75 μM; percent of control

smiles: COc1ccc(-c2cc(=O)c3c(OC)c(O)c(OC)c(OC)c3o2)cc1OC
viability at 36 h, 75 µM: ~82%

###

test: MTT assay, post-confluent cells (mitotic clonal expansion); assay type: cell-based, mouse; settings: mouse, post-confluent 3T3-L1 cells; 35 μM; percent of control; read-out: cell viability
endpointLabel: viability at 24 h, 35 µM (%)

smiles: COc1ccc(-c2cc(=O)c3c(OC)c(O)c(OC)c(OC)c3o2)cc1OC
experimentalResult: 83.1

###

assay: MTT assay, post-confluent cells (mitotic clonal expansion); type: cell-based, mouse; conditions: mouse, post-confluent 3T3-L1 cells; 50 μM; percent of control; read-out: cell viability

smiles: COc1ccc(-c2cc(=O)c3c(OC)c(O)c(OC)c(OC)c3o2)cc1OC
uom: %
viability at 24 h, 50 µM: 85.6
